Ref: ChEMBL document CHEMBL3758107

Reported clearance values for a set of molecules
- method notes: Plasma clearance in rat at 0.25 mg/kg, iv
- Assay type: ADME, organism-based
Numeric only. Scale: mL/min/kg

Please review the entries below; each comes with its answer.
* Cc1ccoc1C(=O)Nc1ccc(N2C(=O)c3cccc(C)c3C2=O)cc1F | 6.94
* Cc1ccc2c(c1)C(=O)N(c1ccc(NC(=O)c3occc3C)c(F)c1)C2=O | 4.61
* Cc1ccoc1C(=O)Nc1ccc(N2C(=O)c3cccc(F)c3C2=O)cc1F | 16.7

Incoming: Give the reported value of clearance for this record: Cc1ccoc1C(=O)Nc1ccc(N2C(=O)c3ccc(F)cc3C2=O)cc1F
Outgoing: 62.6

Incoming: Supply measured clearance of Cc1ccoc1C(=O)Nc1ccc(N2C(=O)c3ccc(Cl)cc3C2=O)cc1F in your reply.
Outgoing: 65.5
